// data source = the supplement of paper PMC8967900

system: DND-41; assay: selective drug sensitivity score (sDSS, relative to normal bone marrow) (sDSS (score)); higher = more potent and effective on the cell line relative to normal bone marrow cells; conditions: 72 h;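 further: ALL cell lines in 384-well plates, five doses spanning 10,000-fold, each plate scaled between vehicle and 100 µmol/L benzalkonium chloride controls, sDSS an adapted area-under-curve metric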
Use 0.3 as the dividing line for selective drug sensitivity score, with the line itself on the Satisfied side and lower values as Not satisfied.

>  <COMPOUND>
CCN1CCN(Cc2ccc(Nc3ncc(F)c(-c4cc(F)c5nc(C)n(C(C)C)c5c4)n3)nc2)CC1 [Abemaciclib] (top concentration 2500 nM)

>  <CLASSIFICATION>
Satisfied

$$$$

Now consider the entry below.
[Q] Does CCOC(=O)C1=CCCC[C@H]1S(=O)(=O)Nc1ccc(F)cc1Cl [Resatorvid] (top concentration 10000 nM) have a reported selective drug sensitivity score of at least 0.3?
[A] Not satisfied

----------
Could you please report measured selective drug sensitivity score for the items listed next?
test system: PF-382; assay: selective drug sensitivity score (sDSS, relative to normal bone marrow) (sDSS (score)); higher = more potent and effective on the cell line relative to normal bone marrow cells; conditions: 72 h
Answers are plain numbers.

Illustrative cases are given below, each with its answer.
>  <MOLECULE>
CC(C)(O)CC(=O)NCCn1ccc2ncnc(Nc3ccc(Oc4cccc(C(F)(F)F)c4)c(Cl)c3)c21 [TAK-285] (top concentration 2500 nM)

>  <selective drug sensitivity score>
0

$$$$
>  <MOLECULE>
CN1CCN(c2nc(C3=C(c4c[nH]c5ccccc45)C(=O)NC3=O)c3ccccc3n2)CC1 [Sotrastaurin] (top concentration 10000 nM)

>  <selective drug sensitivity score>
-1.9

$$$$
>  <MOLECULE>
NCC(=O)Nc1ccc(-n2nc(C(F)(F)F)cc2-c2ccc3c(ccc4ccccc43)c2)cc1 (top concentration 25000 nM)

>  <selective drug sensitivity score>
8

$$$$
>  <MOLECULE>
Cc1nc(C(=O)NCC(=O)O)c(O)c2ccc(Oc3ccccc3)cc12 [Roxadustat] (top concentration 10000 nM)

>  <selective drug sensitivity score>
-0.52

$$$$
>  <MOLECULE>
Cc1cc(F)c(C(=O)Nc2cccc(-c3nncn3C(C)C)n2)cc1-n1cnc(C2CC2)c1 [Selonsertib] (top concentration 1000 nM)

>  <selective drug sensitivity score>
0

$$$$

Need selective drug sensitivity score for each of these molecules.
1. CC1(C)CC[C@]2(NC(=O)C(C)(F)F)CC[C@]3(C)[C@H](C(=O)C=C4[C@@]5(C)C=C(C#N)C(=O)C(C)(C)[C@@H]5CC[C@]43C)[C@@H]2C1 [Omaveloxolone] (top concentration 10000 nM)
2. C[C@H]1CNCCCN1S(=O)(=O)c1cccc2cncc(F)c12 [Ripasudil] (top concentration 10000 nM)
3. CC1(C)NC(=O)N(c2ccc([N+](=O)[O-])c(C(F)(F)F)c2)C1=O [Nilutamide] (top concentration 10000 nM)
4. N[C@@H]1CCCN(c2c(/C=C3\SC(=O)NC3=O)cccc2-c2ccccc2)C1 [AZD1208] (top concentration 10000 nM)

[A]
[1.08, -0.22, -0.08, -3.8]

Need selective drug sensitivity score for each of these molecules.
1. CS(=O)(=O)c1ccc(C(=O)Nc2ccc(Cl)c(-c3ccccn3)c2)c(Cl)c1 [Vismodegib] (top concentration 10000 nM)
2. CC[C@]12C=CCN3CC[C@@]4(c5cc([C@@]6(C(=O)OC)C[C@@H]7C[C@@H](C(C)(F)F)CN(Cc8c6[nH]c6ccccc86)C7)c(OC)cc5N(C)[C@H]4[C@@](O)(C(=O)OC)[C@@H]1OC(C)=O)[C@@H]32 [Vinflunine] (top concentration 1000 nM)
3. CN1CCC(COc2cnc(-c3cccc(Cn4nc(-c5cccc(C#N)c5)ccc4=O)c3)nc2)CC1 [Tepotinib] (top concentration 1000 nM)

[A]
1. -1.14
2. 2.68
3. -0.08

----------
Could you please report measured selective drug sensitivity score for the items listed next?
test system: REH; experiment: selective drug sensitivity score (sDSS, relative to normal bone marrow) (sDSS (score)); higher = more potent and effective on the cell line relative to normal bone marrow cells; settings: 72 h
One number for each entry.

>  <COMPOUND>
C=C1C[C@@H]2CC[C@@]34C[C@H]5O[C@H]6[C@@H](O3)[C@H]3O[C@H](CC[C@@H]3O[C@H]6[C@H]5O4)CC(=O)C[C@@H]3[C@@H](OC)[C@@H](C[C@H](O)CN)O[C@H]3C[C@H]3O[C@@H](CC[C@@H]1O2)C[C@@H](C)C3=C [Eribulin] (top concentration 1000 nM)

>  <selective drug sensitivity score>
18.9

$$$$

Note: attention shifts to another entry.
[Q] # selective drug sensitivity score lookup, item CC1=C2C[C@H]3[C@@H](CC[C@@H]4C[C@H](NS(C)(=O)=O)CC[C@@]43C)[C@@H]2CC[C@@]2(C1)O[C@@H]1C[C@H](C)CN[C@H]1[C@H]2C [Saridegib] (top concentration 10000 nM)
[A] -1.16

----------
test system: NALM-16; assay: selective drug sensitivity score (sDSS, relative to normal bone marrow) (sDSS (score)); higher = more potent and effective on the cell line relative to normal bone marrow cells; settings: 72 h
METRIC: selective drug sensitivity score
Numbers only.

>  <COMPOUND>
COc1cc(N2CCC(N3CCN(C)CC3)CC2)ccc1Nc1ncc(Cl)c(Nc2ccccc2P(C)(C)=O)n1 [Brigatinib] (top concentration 1000 nM)

>  <TARGET>
NALM-16

>  <selective drug sensitivity score>
-3.14

$$$$

Need selective drug sensitivity score for each of these compounds.
1. CC(C)(C#N)c1cc(Cn2cncn2)cc(C(C)(C)C#N)c1 [Anastrozole] (top concentration 10000 nM)
2. COc1ccc(Cn2ccc3ccc(C(=O)NO)cc32)cc1 (top concentration 10000 nM)
3. Nc1ccn([C@@H]2O[C@H](CO)[C@@H](O)[C@@H]2O)c(=O)n1 [Cytarabine] (top concentration 10000 nM)

[A]
0
2.44
8.8

----------
system: P12-ICHIKAWA; test: selective drug sensitivity score (sDSS, relative to normal bone marrow) (sDSS (score)); higher = more potent and effective on the cell line relative to normal bone marrow cells; details: 72 h
METRIC: selective drug sensitivity score
Answers are plain numbers.

Illustrative cases are given below, each with its answer.
>  <MOLECULE>
Nc1ncnc2c1c(COc1cccc(Cl)c1)nn2C1CCOCC1 (top concentration 10000 nM)

>  <METRIC>
selective drug sensitivity score

>  <REPORTED_MEASUREMENT>
-0.54

$$$$
>  <MOLECULE>
CNCc1ccc(-c2[nH]c3cc(F)cc4c3c2CCNC4=O)cc1 [Rucaparib] (top concentration 10000 nM)

>  <METRIC>
selective drug sensitivity score

>  <REPORTED_MEASUREMENT>
-0.58

$$$$
>  <MOLECULE>
CC(C)c1cc(-c2n[nH]c(=O)n2-c2ccc3c(ccn3C)c2)c(O)cc1O [Ganetespib] (top concentration 1000 nM)

>  <METRIC>
selective drug sensitivity score

>  <REPORTED_MEASUREMENT>
-0.96

$$$$
>  <MOLECULE>
CC(C)(O)CC(=O)NCCn1ccc2ncnc(Nc3ccc(Oc4cccc(C(F)(F)F)c4)c(Cl)c3)c21 [TAK-285] (top concentration 2500 nM)

>  <METRIC>
selective drug sensitivity score

>  <REPORTED_MEASUREMENT>
0

$$$$
>  <MOLECULE>
Cc1cc(-c2ncc(CC(=O)Nc3ccc(-c4cnccn4)cn3)cc2C)ccn1 [NVP-LGK974] (top concentration 10000 nM)

>  <METRIC>
selective drug sensitivity score

>  <REPORTED_MEASUREMENT>
3.2

$$$$

Need selective drug sensitivity score for each of these molecules.
1. CNC(=O)c1ccc2cc([C@@]3(O)CCn4cncc43)ccc2c1 [Orteronel] (top concentration 10000 nM)
2. C[C@@H]1C[C@H]2[C@@H]3CCC4=CC(=O)C=C[C@]4(C)[C@@]3(F)[C@@H](O)C[C@]2(C)[C@@]1(O)C(=O)CO [Dexamethasone] (top concentration 10000 nM)

[A]
0
28

----------
test system: CCRF-HSB2; assay: selective drug sensitivity score (sDSS, relative to normal bone marrow) (sDSS (score)); higher = more potent and effective on the cell line relative to normal bone marrow cells; conditions: 72 h
Could you please report measured selective drug sensitivity score for the items listed next?
Numbers only.

>  <COMPOUND>
CNCc1ccc(-c2[nH]c3cc(F)cc4c3c2CCNC4=O)cc1 [Rucaparib] (top concentration 10000 nM)

>  <selective drug sensitivity score>
1.22

$$$$
>  <COMPOUND>
O=C(O)CNC(=O)c1c(O)c2ccccc2n(Cc2ccccc2)c1=O [IOX-2] (top concentration 50000 nM)

>  <selective drug sensitivity score>
-0.82

$$$$
>  <COMPOUND>
Cc1cc(F)c(C(=O)Nc2cccc(-c3nncn3C(C)C)n2)cc1-n1cnc(C2CC2)c1 [Selonsertib] (top concentration 1000 nM)

>  <selective drug sensitivity score>
0

$$$$

Note: attention shifts to another entry.
[Q] # selective drug sensitivity score lookup, item Cc1cc(OCc2nnc(SC3CCCC3)n2-c2cccnc2)ccc1-c1ccc(S(C)(=O)=O)cc1 [NMS-873] (top concentration 10000 nM)
[A] 10.5
